The origin of these recorded values is patent US20250313563A1.

# Subject of test: GSK3α (GST-full length GSK3α) (Homo sapiens (Human))
# Assay name: GSK3α TR-FRET kinase assay
# Assay type: biochemical
# Assay context: 1 nM GSK3α, 4 μM ATP, 30 minute preincubation; geometric mean; read-out: GSK3-A TR-FRET BIOCHEMICAL (TR-FRET); GMean; IC50
Provide the recorded IC50 for the entries that follow.

q: What value of measured IC50 is listed for CC1(C)CC(=O)C2=C(C1)Nc1n[nH]cc1[C@]2(C)c1cc(C(F)(F)F)ccc1F [Compound 816798] ?
a: ≤ 100 nM

q: // IC50 lookup, key: CC[C@@]1(c2cccc(-c3cn[nH]c3)c2)C2=C(CC(C)(C)NC2=O)Nc2n[nH]c(C(F)(F)F)c21 [Compound 948312]
a: ≤ 100 nM

q: Item CCC1(c2cccc(-c3ccccc3)c2)C2=C(CC(C)(C)CC2=O)Nc2n[nH]cc21 (stereo not shown) [Compound 789514] has what recorded IC50?
a: 100 to 1000 nM

q: Need IC50, item CC[C@@]1(c2cccc(N3CCCC3)c2)C2=C(CC(C)(C)CC2=O)Nc2n[nH]cc21 [Compound 810509]
a: > 5000 nM

q: Requested read-out: IC50. Entry: CCC1(c2cccc(OCCOC)c2)C2=C(CC(C)(C)CC2=O)Nc2n[nH]cc21 (stereo not shown) [Compound 801446]
a: 100 to 1000 nM

q: For CC[C@]1(c2cccc(-c3ccnc(C)c3C)c2)C2=C(CC(C)(C)NC2=O)Nc2n[nH]c(C(F)(F)F)c21 [Compound 948181] , what is its reported IC50?
a: 100 to 1000 nM

q: Request the reported IC50 associated with CCC1(c2cccc(C(F)(F)F)c2)C2=C(CC(C)(C)CC2=O)Nc2n[nH]c(Br)c21 (stereo not shown) [Compound 802358]
a: ≤ 100 nM

###

# Subject of test: GSK3α (GST-full length GSK3α) (Homo sapiens (Human), UniProt P49840)
# Sequence (P49840 whole entry): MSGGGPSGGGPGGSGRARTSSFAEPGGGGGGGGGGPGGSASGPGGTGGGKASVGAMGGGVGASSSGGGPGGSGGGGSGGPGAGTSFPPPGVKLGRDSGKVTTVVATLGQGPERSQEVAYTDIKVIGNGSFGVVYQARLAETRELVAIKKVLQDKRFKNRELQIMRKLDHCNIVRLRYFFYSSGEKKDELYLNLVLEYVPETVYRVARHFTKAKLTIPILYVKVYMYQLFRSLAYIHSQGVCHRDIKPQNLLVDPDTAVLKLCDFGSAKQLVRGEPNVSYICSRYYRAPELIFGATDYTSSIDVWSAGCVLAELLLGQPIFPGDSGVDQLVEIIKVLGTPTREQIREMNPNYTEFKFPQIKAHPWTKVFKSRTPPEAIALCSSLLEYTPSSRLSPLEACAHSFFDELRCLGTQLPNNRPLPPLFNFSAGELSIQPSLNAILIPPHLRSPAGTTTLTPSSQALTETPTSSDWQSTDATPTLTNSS
# Assay name: GSK3α TR-FRET kinase assay
# Format: biochemical
# Assay context: read-out: GSK3-A (TR-FRET 1 mM ATP); GMean; IC50; 1 mM ATP; geometric mean
Endpoint label: IC50

q: Which IC50 is listed for CCC1(c2cccc(-c3cn(C)nc3C)c2)C2=C(CC(C)(C)C2=O)Nc2n[nH]cc21 (stereo not drawn) [Compound 951702] ?
a: 100 to 1000 nM

q: Please look up its IC50: CCN(c1cccc(C2(CC)C3=C(CC(C)(C)CC3=O)Nc3n[nH]cc32)c1)c1ncccn1 (stereo not drawn) [Compound 947333]
a: ≤ 100 nM

q: # input compound: CCC1(c2cccc(-c3ccnc4c3CCCC4)c2)C2=C(CC(C)(C)CC2=O)Nc2n[nH]cc21 (stereo not drawn) [Compound 944033] ; wanted: its IC50
a: ≤ 100 nM

q: Fill in the blank: the reported IC50 of CC[C@]1(c2cccc(-c3c(F)cncc3Cl)c2)C2=C(CC(C)(C)NC2=O)Nc2n[nH]cc21 [Compound 948371] is ____.
a: 100 to 1000 nM

q: // IC50 lookup, key: CC[C@]1(c2cccc(-c3cnn(C)c3C(F)(F)F)c2)C2=C(CC(C)(C)NC2=O)Nc2n[nH]cc21 [Compound 948815]
a: 100 to 1000 nM

q: Suppose we examine the compound CCC1(c2cccc(S(=O)(=O)c3ccccc3)c2)C2=C(CC(C)(C)CC2=O)Nc2n[nH]cc21 (stereo not drawn) [Compound 913123] ; what IC50 value has been reported?
a: ≤ 100 nM

q: Fill in the blank: the reported IC50 of CCC1(c2cccc(N3CCCc4ncccc43)c2)C2=C(CC(C)(C)CC2=O)Nc2n[nH]cc21 (stereo not drawn) [Compound 889639] is ____.
a: ≤ 100 nM

q: Param item = CCC1(c2cccc(-c3cn(C)nc3C)c2)C2=C(CC(C)(C)NC2=O)Nc2n[nH]c(Cl)c21 (stereo not drawn) [Compound 949336] ; retrieve measured IC50.
a: ≤ 100 nM

q: Which IC50 is reported for this compound? CC[C@]1(c2cccc(-c3cn(C)nc3C)c2)C2=C(CC(C)(C)CC2=O)Nc2n[nH]cc21 [Compound 945546]
a: ≤ 100 nM

q: What IC50 value was documented for this compound, CCC1(c2cccc(C(F)(F)F)c2)C2=C(CC(C)(C)CC2=O)Nc2n[nH]c(Br)c21 (stereo not drawn) [Compound 810466] ?
a: ≤ 100 nM

q: Query: IC50; subject: CCC1(c2cccc(C)c2)C2=C(CC(C)(C)CC2=O)Nc2n[nH]cc21 (stereo not drawn) [Compound 789560]
a: 1000 to 5000 nM

q: What does the data say about its IC50? Entry: CCC1(c2cccc(C(F)(F)F)c2)C2=C(CC(C)(C)CC2=O)Nc2n[nH]cc21 (stereo not drawn) [Compound 790754]
a: 100 to 1000 nM

q: Request the reported IC50 associated with CCC1(c2cccc(-c3ccnc(C)c3C)c2)C2=C(CC(C)(C)NC2=O)Nc2n[nH]c(C(F)(F)F)c21 (stereo not drawn) [Compound 948185]
a: ≤ 100 nM

q: Quick one: IC50 of CCC1(c2cccc(-c3cnn(C)c3)c2)C2=C(CC(C)(C)NC2=O)Nc2n[nH]c(C(F)(F)F)c21 (stereo not drawn) [Compound 947405] ?
a: ≤ 100 nM

q: Reported IC50 for CCC1(c2cccc(N(C)c3ncccn3)c2)C2=C(CC(C)(C)NC2=O)Nc2n[nH]c(C(F)(F)F)c21 (stereo not drawn) [Compound 949181] : what is it?
a: ≤ 100 nM

###

# Subject of test: GSK3b (GST-full length GSK3b) (Homo sapiens (Human))
# Sequence (P49841 whole entry): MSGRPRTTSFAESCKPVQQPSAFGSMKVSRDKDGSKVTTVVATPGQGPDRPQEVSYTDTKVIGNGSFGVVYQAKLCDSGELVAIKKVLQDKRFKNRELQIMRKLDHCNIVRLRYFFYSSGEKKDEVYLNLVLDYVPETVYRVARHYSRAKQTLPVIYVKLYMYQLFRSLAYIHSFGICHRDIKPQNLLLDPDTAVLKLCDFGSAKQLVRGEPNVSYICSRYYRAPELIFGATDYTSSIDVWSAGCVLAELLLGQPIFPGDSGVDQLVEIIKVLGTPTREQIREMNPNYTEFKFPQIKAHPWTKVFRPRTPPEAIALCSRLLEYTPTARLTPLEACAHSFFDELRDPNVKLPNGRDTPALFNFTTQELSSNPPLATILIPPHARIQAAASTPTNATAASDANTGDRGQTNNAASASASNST
# Assay name: GSK3b TR-FRET kinase assay
# Format: biochemical
# Assay context: 1 nM GSK3b, 2 μM ATP, 30 minute preincubation, Table 16; read-out: GSK3-B TR-FRET BIOCHEMICAL (TR-FRET)
Assignment: determine reported IC50 for the given compounds.

q: # input compound: Cc1cc(S(=O)(=O)N2CCC3(CC2)C2=C(CC(C)(C)CC2=O)Nc2n[nH]cc23)c(C)s1 ; wanted: its IC50
a: 100 to 1000 nM

q: If you can, please state the reported IC50 value of CCc1cc(N(C)c2cccc(C3(CC)C4=C(CC(C)(C)CC4=O)Nc4n[nH]cc43)c2)ccn1 (stereo not drawn) .
a: 1000 to 5000 nM

q: For the compound CC1(C)CC(=O)C2=C(C1)Nc1n[nH]cc1C21CCN(S(=O)(=O)c2ccc(F)c(Cl)c2)CC1 , what IC50 is on record?
a: ≤ 100 nM

q: Look up IC50: CCC1(c2cccc(Oc3ncccn3)c2)C2=C(CC(C)(C)CC2=O)Nc2n[nH]cc21 (stereo not drawn) [Compound 947400]
a: ≤ 100 nM

q: # IC50 lookup, item CC1(C)CC(=O)C2=C(C1)Nc1n[nH]cc1C21CN(S(=O)(=O)c2ccccc2F)C1
a: 100 to 1000 nM

q: // lookup IC50 for CN(C)C(=O)c1ccc(S(=O)(=O)N2CCC3(CC2)C2=C(CC(C)(C)CC2=O)Nc2n[nH]cc23)cc1
a: ≤ 100 nM

q: Give the measured IC50 of CC1(C)CC(=O)C2=C(C1)Nc1n[nH]cc1C21CCN(c2ccncn2)CC1 .
a: 1000 to 5000 nM

q: Look up IC50 for this compound: CC[C@@]1(c2ccccc2)C2=C(Nc3n[nH]cc31)[C@@H]1CC[C@@H](C1)C2=O
a: > 5000 nM

q: Give the measured IC50 of CC1(C)CC(=O)C2=C(C1)Nc1n[nH]cc1C21CCCN(S(=O)(=O)Cc2ccccc2)CC1 (stereo not drawn) .
a: 100 to 1000 nM

q: Sample Cc1nn(C)c(C)c1S(=O)(=O)N1CCC2(CC1)C1=C(CC(C)(C)CC1=O)Nc1n[nH]cc12 — what was its IC50?
a: 1000 to 5000 nM

q: For the compound shown here, COc1ccc(S(=O)(=O)N2CCC3(CC2)C2=C(CC(C)(C)CC2=O)Nc2n[nH]cc23)cn1 , give the reported IC50.
a: ≤ 100 nM

q: Any idea what its IC50 is? The compound is COc1cccc(S(=O)(=O)N2CCCC3(CC2)C2=C(CC(C)(C)CC2=O)Nc2n[nH]cc23)c1 (stereo not drawn)
a: 100 to 1000 nM

q: Quick one: IC50 of CCC1(c2cccc(C(F)(F)F)c2)C2=C(CN(C)C2=O)Nc2n[nH]cc21 (stereo not drawn) ?
a: 1000 to 5000 nM

q: IC50 for COCCn1cc(S(=O)(=O)N2CCC3(CC2)C2=C(CC(C)(C)CC2=O)Nc2n[nH]cc23)cn1 ?
a: ≤ 100 nM

q: Using the record for CC[C@@]1(c2cccc(-c3cnc(C)n3C)c2)C2=C(CC(C)(C)CC2=O)Nc2n[nH]cc21 , report its IC50.
a: ≤ 100 nM
